Provenance of the data: patent US11739098B2

- tested.on: human TLR9 (Homo sapiens, UniProt Q9NR96)
- Sequence (Q9NR96 26-1032): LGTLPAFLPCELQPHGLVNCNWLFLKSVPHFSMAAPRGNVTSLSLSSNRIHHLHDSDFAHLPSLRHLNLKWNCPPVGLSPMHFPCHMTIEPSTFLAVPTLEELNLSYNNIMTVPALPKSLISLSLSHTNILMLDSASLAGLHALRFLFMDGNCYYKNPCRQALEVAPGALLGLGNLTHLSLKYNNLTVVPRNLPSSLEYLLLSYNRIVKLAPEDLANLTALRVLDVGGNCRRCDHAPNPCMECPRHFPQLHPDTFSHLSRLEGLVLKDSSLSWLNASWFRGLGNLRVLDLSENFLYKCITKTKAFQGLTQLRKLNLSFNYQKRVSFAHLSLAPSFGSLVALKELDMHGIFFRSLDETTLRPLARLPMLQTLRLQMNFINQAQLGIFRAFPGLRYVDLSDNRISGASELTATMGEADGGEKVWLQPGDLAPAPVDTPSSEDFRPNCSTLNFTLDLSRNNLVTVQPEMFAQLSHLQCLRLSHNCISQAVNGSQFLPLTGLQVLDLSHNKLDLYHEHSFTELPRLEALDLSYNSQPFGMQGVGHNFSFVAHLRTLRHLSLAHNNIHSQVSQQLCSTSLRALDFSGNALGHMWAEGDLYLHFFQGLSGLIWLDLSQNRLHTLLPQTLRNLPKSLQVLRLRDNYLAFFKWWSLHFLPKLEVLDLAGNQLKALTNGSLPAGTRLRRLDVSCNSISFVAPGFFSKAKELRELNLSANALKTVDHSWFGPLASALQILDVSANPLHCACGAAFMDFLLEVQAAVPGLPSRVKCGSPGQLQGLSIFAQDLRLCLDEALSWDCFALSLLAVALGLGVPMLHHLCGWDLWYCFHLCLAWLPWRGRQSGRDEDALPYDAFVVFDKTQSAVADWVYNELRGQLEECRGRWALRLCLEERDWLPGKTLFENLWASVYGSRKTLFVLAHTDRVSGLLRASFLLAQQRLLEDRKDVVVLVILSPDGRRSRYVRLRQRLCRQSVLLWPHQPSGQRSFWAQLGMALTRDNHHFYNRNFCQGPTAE
- assay.overview: TLR9 inhibition reporter assay (HEK-Blue cells, SEAP reporter, ODN2006 stimulation)
- test.parameters: HEK-Blue cells overexpressing human TLR9, SEAP reporter, ODN2006 5 nM
experimental.readout: IC50

Study these solved cases before continuing.
{"columns": ["molecule", "IC50"],
 "data": [
  ["COc1cc(-c2[nH]c3ccc(C4CCN(CC(=O)N(C)C)CC4)cc3c2C(C)C)cn2ccnc12", "100 to 1000 nM"],
  ["CC(C)c1c(-c2ccc3nccn3c2)[nH]c2ccc(C3CCN(C(C)C)CC3)cc12", "100 to 1000 nM"],
  ["COc1cc(-c2[nH]c3ccc(C4CCNCC4)cc3c2C(C)C)cn2cc(C(=O)N(C)C)nc12", "1000 to 50000 nM"],
  ["CC(C)c1c(-c2ccc3nccn3c2)[nH]c2ccc(C3CCN(C(=O)C4CC(=O)N(C)C4)CC3)cc12 (centres unmarked)", "> 50000 nM"],
  ["CC(C)c1c(-c2ccnc3[nH]cc(O)c23)[nH]c2ccc(C3CCNCC3)cc12", "1000 to 50000 nM"],
  ["Cc1c(C2CCNCC2)ccc2[nH]c(-c3ccnc4[nH]ncc34)c(C)c12", "1000 to 50000 nM"],
  ["CC(C)c1c(-c2ccn3cnnc3c2)[nH]c2ccc(C3CCN(C4CCOCC4)CC3)cc12", "100 to 1000 nM"]
]}

Next molecule, please.
Which IC50 value belongs to CC(C)c1c(-c2n[nH]c3ncccc23)[nH]c2ccc(C3CCNCC3)cc12 ?
1000 to 50000 nM
